Target: human N-terminally His6-tagged AspH315–758 (Homo sapiens, UniProt Q12797)
Sequence (Q12797 315-758): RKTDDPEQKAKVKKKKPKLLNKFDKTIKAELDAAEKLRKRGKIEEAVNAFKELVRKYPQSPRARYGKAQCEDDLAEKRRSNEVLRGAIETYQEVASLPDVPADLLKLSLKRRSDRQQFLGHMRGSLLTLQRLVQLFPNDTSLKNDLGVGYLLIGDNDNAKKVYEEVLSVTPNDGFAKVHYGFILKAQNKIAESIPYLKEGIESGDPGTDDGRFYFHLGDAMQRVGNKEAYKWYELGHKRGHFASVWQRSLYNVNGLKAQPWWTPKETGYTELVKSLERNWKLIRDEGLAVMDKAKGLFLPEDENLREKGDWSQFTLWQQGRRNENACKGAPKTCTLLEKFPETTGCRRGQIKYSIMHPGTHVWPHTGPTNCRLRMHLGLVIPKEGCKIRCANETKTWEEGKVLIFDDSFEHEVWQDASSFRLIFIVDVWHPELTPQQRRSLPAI
Measurement kind: pIC50
pIC50 field: float, defined as -log10 of concentration (mol/L).

These recorded examples may help you get a feel for the data.
# Smiles structure, Test system, Measurement
rows = [
    ("O=C(O)c1cc(C(=O)O)c(C(F)(F)F)cn1", "human N-terminally His6-tagged AspH315–758 (Homo sapiens, UniProt Q12797)", 5.38),
    ("O=C(O)c1ccnc(C(=O)O)c1F", "human N-terminally His6-tagged AspH315–758 (Homo sapiens, UniProt Q12797)", 6.96),
]

As a next step, examine the compound that follows.
// returns pIC50 for "O=C(O)c1cc(C(=O)O)c(F)cn1" with human N-terminally His6-tagged AspH315–758 (Homo sapiens, UniProt Q12797); value = 7.30

* * *

target: N-terminally His6-tagged FIH (Homo sapiens, UniProt Q9NWT6); construct: His6 (N); experiment: SPE-MS inhibition assay, FIH (peptide hydroxylation); details: 5.0 μM HIF-1α CAD (788–822), n = 2, mean ± SD, inactive = no inhibition at 100 – 0.002 μM
Sequence (Q9NWT6 whole entry): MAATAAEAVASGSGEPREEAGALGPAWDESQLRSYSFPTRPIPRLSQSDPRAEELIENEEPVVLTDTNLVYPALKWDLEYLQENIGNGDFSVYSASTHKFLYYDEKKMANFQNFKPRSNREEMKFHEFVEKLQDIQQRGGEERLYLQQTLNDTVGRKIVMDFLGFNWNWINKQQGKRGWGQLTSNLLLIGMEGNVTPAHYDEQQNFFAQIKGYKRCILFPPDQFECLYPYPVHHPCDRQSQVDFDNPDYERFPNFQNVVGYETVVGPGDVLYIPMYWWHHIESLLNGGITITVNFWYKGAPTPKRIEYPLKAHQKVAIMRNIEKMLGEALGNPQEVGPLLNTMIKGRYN
Readings of IC50 for the listed compounds

# Compound, IC50
rows = [
    ("O=C(O)c1ccnc(C(=O)O)c1F [compound 7, 3-Fluoropyridine-2,4-dicarboxylic acid]", "> 50 µM"),
]

As a next step, examine the compound that follows.
Briefly, IC50 measured for O=C(O)c1cc(C(=O)O)c(F)cn1 [compound 8, 5-Fluoropyridine-2,4-dicarboxylic acid] : > 50 µM

* * *

biological target: KDM4E (Homo sapiens); assay: SPE-MS inhibition assay, KDM4E (peptide demethylation); conditions: 10.0 μM H3_1–15K9me3, n = 2, mean ± SD, inactive = no inhibition at 100 – 0.002 μM
Sequence (B2RXH2 whole entry): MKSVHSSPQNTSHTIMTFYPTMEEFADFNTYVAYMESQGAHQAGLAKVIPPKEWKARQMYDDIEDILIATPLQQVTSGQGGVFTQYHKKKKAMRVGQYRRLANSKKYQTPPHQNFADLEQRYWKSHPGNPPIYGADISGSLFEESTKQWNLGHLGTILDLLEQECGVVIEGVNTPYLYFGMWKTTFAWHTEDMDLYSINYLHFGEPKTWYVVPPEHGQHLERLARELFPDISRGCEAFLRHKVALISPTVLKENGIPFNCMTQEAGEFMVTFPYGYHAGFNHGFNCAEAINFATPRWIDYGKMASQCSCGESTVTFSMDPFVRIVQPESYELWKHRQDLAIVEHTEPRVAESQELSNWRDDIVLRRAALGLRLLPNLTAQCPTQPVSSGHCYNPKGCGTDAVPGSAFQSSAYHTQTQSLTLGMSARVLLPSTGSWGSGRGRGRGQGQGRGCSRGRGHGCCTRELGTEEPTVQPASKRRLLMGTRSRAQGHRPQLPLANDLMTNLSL
Readings of pIC50 for the listed compounds
pIC50 field: float, defined as -log10 of concentration (mol/L).

# Compound, Measurement
measured = [
    ("O=C(O)c1cc(C(=O)O)c(F)cn1 [compound 8, 5-Fluoropyridine-2,4-dicarboxylic acid]", 5.80),
]

// returns pIC50 for O=C(O)c1ccnc(C(=O)O)c1F [compound 7, 3-Fluoropyridine-2,4-dicarboxylic acid] with KDM4E (Homo sapiens); value = 5.89
